Test system: NCI-H23 lung
TEST: NCI-60 one-dose screen, 48 h (100 = growth as untreated, 0 = no growth, -100 = all killed)
TEST_PARAMETERS: 10 µM unless noted
About 83,000 compounds went through this panel and 20% of them were active in at least one assay; those are over-represented in the sample as a whole.
Please provide measured growth for the entries that follow.
Numbers only, in %.

As a guide, the following entries are already answered.
# MOLECULE, growth / %
measured = [
    ("CCCCNC(=O)c1ccccc1C", 90.4),
    ("CCCC(=O)Oc1ccc2ccccc2c1", 98.7),
    ("CC1(C)OC(=O)C(=Cc2ccc(C#N)cc2)C(=O)O1", 104),
    ("CCCCC/C(C)=N\\NC(N)=S", 89.5),
    ("Cc1cc(=NO)cc(C)n1O", 109),
    ("COC(=O)c1ccccc1Cl", 103),
]

Report growth for each item below.
1. Cc1cnc(N)s1
2. N#CC(=S)Nc1ccc(Cl)c(Cl)c1

Output:
1: 97.5; 2: 3.93
